# tested_system: glucagon receptor (GCGR) (human, UniProt P47871 26-477)
# Sequence (P47871 26-477): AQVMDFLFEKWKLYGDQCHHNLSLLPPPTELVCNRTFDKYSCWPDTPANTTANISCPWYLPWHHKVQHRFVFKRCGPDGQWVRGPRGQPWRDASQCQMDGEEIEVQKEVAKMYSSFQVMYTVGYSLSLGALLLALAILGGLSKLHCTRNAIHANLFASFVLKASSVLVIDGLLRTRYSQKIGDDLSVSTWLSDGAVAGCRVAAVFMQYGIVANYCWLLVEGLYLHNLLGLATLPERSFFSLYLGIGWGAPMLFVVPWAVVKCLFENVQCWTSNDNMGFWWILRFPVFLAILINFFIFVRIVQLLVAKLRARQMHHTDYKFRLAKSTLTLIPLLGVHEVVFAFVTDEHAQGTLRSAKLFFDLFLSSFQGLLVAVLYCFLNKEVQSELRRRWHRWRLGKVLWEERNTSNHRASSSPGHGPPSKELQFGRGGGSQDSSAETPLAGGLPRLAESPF
# test_protocol: cell-based or functional assay
Starred links: 1 amine or outer side, 2 acyl side, 3 side chain; linkers in the order of their positions; H or OH if unused. Non-standard residues stand in square brackets, D forms with d. Groups on a side chain read outwards from the residue. Primed or numbered codes have the meaning given here. No end group written: not given here. *: point of attachment. γGlu = O=C(O)[C@H](CCC(=O)[*:2])N[*:1]; Stearoyl = CCCCCCCCCCCCCCCCCC(=O)*; αMeF = C[C@](N)(Cc1ccccc1)C(=O)O; αMeK = C[C@](N)(CCCCN)C(=O)O; αMeS = C[C@](N)(CO)C(=O)O; PEG2′ = not defined here; Aib = CC(C)(N)C(=O)O
readout_type: cAMP Primary assay EC50 Gluc-R (2nd) (nM)

binder	readout_type	measurement_unit	quantitative_result
HK([PEG2′-PEG2′-γGlu-Stearoyl])EGS[αMeF]TSDV[αMeS]S[αMeF]LEGEAA[αMeK]E[αMeF]IA[αMeF]VV[αMeK]GG-NH2 [SEQ ID NO 127]	cAMP Primary assay EC50 Gluc-R (2nd)	nM	25.1
H[Aib]K([PEG2′-PEG2′-γGlu-Stearoyl])GS[αMeF]TSDV[αMeS]S[αMeF]LEGEAA[αMeK]E[αMeF]IA[αMeF]VV[αMeK]GG-NH2 [SEQ ID NO 126]	cAMP Primary assay EC50 Gluc-R (2nd)	nM	25.4
H[Aib]EGS[αMeF]TSDV[αMeS]S[αMeF]LEGEAA[αMeK]E[αMeF]IA[αMeF]VVK([PEG2′-PEG2′-γGlu-Stearoyl])GG-NH2 [SEQ ID NO 101]	cAMP Primary assay EC50 Gluc-R (2nd)	nM	25.4
